The origin of these recorded values is patent US10919902B2.

Each item that follows carries a reported pIC50.
# test target: recombinant human HDACs (Homo sapiens)
# assay comment: HDAC enzymatic assay
# Format: biochemical
# experimental setup: 5 nM HDAC enzyme, 5 h pre-incubation, 17 h reaction at 25° C.; isoform not given; read-out: IC50
pIC50: −log10 of the molar value.

Example entries and their recorded answers appear below.
compound: Nc1ccc(-c2ccccc2)nc1NC(=O)C1CCN(Cc2ccccc2F)CC1 [Compound 379]
test target: recombinant human HDACs (Homo sapiens)
result: < 5.30
--
compound: Nc1cn(-c2ccc(F)cc2)nc1NC(=O)N1CCN(C(=O)[C@@H]2C[C@H]2c2ccccc2)CC1 [Compound 125]
test target: recombinant human HDACs (Homo sapiens)
result: 5.30 to 6.30
--
compound: COc1cccc(CN2CCCC3(CCN(C(=O)Nc4nc(-c5ccc(F)cc5)ccc4N)C3)C2)c1 (centres unmarked) [Compound 222]
test target: recombinant human HDACs (Homo sapiens)
result: < 5.30
--
compound: Nc1ccc(-n2cccn2)nc1NC(=O)N1Cc2cc(F)cnc2C1 [Compound 185]
test target: recombinant human HDACs (Homo sapiens)
result: 5.30 to 6.30
--
compound: Nc1ccc(-c2ccc(F)cc2)nc1NC(=O)N1Cc2cc(CN3CCC3)cnc2C1 [Compound 272]
test target: recombinant human HDACs (Homo sapiens)
result: 6.30 to 7.00

Req: For the compound shown here, Nc1ccc(-c2cccnc2)nc1NC(=O)N1Cc2cc(F)cnc2C1 [Compound 218] , give the reported pIC50.
Resp: < 5.30

Req: Quick check: pIC50 of Cn1cc(CN2CCC3(CC2)CCN(C(=O)Nc2nc(-c4cccnc4)ccc2N)C3)cn1 [Compound 215] ?
Resp: < 5.30

Req: Recorded pIC50 of Nc1ccc(-c2ccccc2)nc1NC(=O)C1CCN(Cc2cccnc2)CC1 [Compound 377] , please.
Resp: < 5.30

Req: Can you look up the measured pIC50 of Nc1ccc(-c2ccco2)nc1NC(=O)N1CC2CN(CCF)CC2C1 (centres unmarked) [Compound 174] for me?
Resp: < 5.30

Req: So what's the measured pIC50 for this one? Nc1ccc(-c2ccc(F)cc2)nc1NC(=O)N1Cc2cc(N3CCC3)cnc2C1 [Compound 254]
Resp: 5.30 to 6.30

Req: For the compound Nc1ccc(-c2ccc(F)cc2)nc1NC(=O)N1CC2CCCC2C1 (centres unmarked) [Compound 385] , what pIC50 is on record?
Resp: 5.30 to 6.30
